Target: human topoisomerase II (Homo sapiens, UniProt P11388)
Construct: Topo II was purified from late log phase suspension cultures of HeLa WIS; endogenous in cells; native enzyme purified in house
Sequence (P11388 whole entry): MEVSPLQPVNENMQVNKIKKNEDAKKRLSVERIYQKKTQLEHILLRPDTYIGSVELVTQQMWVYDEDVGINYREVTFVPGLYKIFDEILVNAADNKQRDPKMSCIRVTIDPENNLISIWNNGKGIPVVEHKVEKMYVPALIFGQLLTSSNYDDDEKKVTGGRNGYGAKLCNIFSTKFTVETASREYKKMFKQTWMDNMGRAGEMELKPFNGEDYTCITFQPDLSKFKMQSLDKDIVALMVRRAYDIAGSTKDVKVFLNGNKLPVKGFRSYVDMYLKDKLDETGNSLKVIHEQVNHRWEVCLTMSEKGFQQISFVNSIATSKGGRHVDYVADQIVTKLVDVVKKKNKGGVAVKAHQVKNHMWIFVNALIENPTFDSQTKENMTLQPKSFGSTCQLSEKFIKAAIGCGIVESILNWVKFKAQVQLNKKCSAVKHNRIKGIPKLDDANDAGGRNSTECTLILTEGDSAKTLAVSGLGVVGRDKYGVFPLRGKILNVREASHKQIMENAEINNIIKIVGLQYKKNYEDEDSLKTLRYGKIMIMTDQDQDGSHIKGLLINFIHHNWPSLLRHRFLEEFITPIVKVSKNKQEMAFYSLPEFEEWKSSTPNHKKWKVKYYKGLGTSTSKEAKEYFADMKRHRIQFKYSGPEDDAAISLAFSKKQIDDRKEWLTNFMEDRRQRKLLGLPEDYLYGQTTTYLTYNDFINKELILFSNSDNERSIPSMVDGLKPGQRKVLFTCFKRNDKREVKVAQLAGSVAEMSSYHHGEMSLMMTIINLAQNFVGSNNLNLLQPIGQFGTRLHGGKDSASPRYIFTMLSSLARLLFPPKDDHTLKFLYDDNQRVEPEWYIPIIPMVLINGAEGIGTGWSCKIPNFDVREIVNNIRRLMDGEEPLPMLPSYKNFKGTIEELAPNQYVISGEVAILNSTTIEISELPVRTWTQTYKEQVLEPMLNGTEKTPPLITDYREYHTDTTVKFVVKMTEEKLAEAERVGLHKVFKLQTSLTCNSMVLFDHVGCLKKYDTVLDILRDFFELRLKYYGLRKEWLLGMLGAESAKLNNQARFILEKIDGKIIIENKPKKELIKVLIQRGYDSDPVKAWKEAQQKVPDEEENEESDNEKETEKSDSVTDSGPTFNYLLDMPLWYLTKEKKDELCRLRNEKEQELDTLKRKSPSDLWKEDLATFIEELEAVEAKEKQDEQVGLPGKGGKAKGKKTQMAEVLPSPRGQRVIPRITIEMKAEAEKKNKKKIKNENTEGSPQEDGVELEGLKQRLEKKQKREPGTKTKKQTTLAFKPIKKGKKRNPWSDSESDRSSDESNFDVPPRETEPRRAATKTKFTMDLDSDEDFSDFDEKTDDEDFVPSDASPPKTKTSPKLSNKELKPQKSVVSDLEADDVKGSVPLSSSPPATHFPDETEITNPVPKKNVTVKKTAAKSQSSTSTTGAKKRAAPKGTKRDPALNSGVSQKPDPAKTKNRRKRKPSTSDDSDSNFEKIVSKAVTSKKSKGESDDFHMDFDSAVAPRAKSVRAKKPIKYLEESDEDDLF
Test: Mammalian (human) topoisomerase II inhibition assay: topo II-DNA complex stabilisation
Conditions: concentration with activity equal to the EC50 of reference mAMSA; 20 min at 37° C.
Hi! Could you tag entries with EC50 below 50 µM as fulfilled, and those at or above as not fulfilled? Much appreciated.

Please review the entries below; each comes with its answer.
Cc1cc(-c2c(F)cc3c(=O)c(C(=O)O)cn4c3c2[S@@+]([O-])CC4C)cc(C)n1 (stereo partly shown) [Example 4]
not fulfilled
Cc1cc(-c2c(F)cc3c(=O)c(C(=O)O)cn4c3c2SC[C@@H]4C)cc(C)n1 [Example 5]
fulfilled
C[C@H]1COc2c(-c3ccncc3)c(F)cc3c(=O)c(C(=O)O)cn1c23 [1(b)]
not fulfilled
Cc1cc(-c2c(F)cc3c(=O)c(C(=O)O)cn4c3c2OC[C@@H]4C)cc(C)n1 [Example 7]
fulfilled
CCc1cc(-c2c(F)cc3c(=O)c(C(=O)O)cn4c3c2OC[C@@H]4C)ccn1 [3(c)]
not fulfilled

# input for lookup
Identify whether the compound CCc1cc(-c2c(F)cc3c(=O)c(C(=O)O)cn4c3c2OC[C@@H]4C)cc(C)n1 [Example 2(d)] records EC50 below 50 µM. not fulfilled

###

Assay: In vivo antitumor assay, P388 leukemia (IP)
Parameters: species or system mice
Settings: mouse, in vivo; P388(IP) 10^6 cells; drug IP; QD1-7; vehicle 3% EtOH, 3% NaHCO3, 1% tween40; read-out: Maximum Tolerated Total Dose
READOUT_KIND: MTD (mg/kg)
Enter your answer as a number in mg/kg; do not include the unit.

Recall and state the measured MTD for Cc1cc(-c2c(F)cc3c(=O)c(C(=O)O)cn4c3c2SC[C@@H]4C)cc(C)n1 [Example 5] . 504

###

Test: In vivo antitumor assay, P388 leukemia (IP)
Set-up: species or system mice
Details: mouse, in vivo; P388(IP) 10^6 cells; drug IP; QD1,5,9; vehicle 5% EtOH, 1% NaHCO3, 0.3% tween40 (pH 8.3); read-out: Maximum Tolerated Total Dose
READOUT_KIND: MTD (mg/kg)
Record the value in mg/kg, omitting the unit from your answer.

Look up MTD of "Cc1cc(-c2c(F)cc3c(=O)c(C(=O)O)cn4c3c2SC[C@@H]4C)cc(C)n1" and report it. 1010

###

Assay: In vivo antitumor assay, colon adenocarcinoma No. 38 (SC)
Design: species or system mice
Conditions: mouse, in vivo; Colon 38 (SC); drug SC; QD3-9; read-out: Maximum Tolerated Total Dose
READOUT_KIND: MTD (mg/kg)
// note: answer is a bare numeric in mg/kg

Entry "Cc1cc(-c2c(F)cc3c(=O)c(C(=O)O)cn4c3c2SC[C@@H]4C)cc(C)n1" needs its MTD filled in; supply it. 504

###

Test: In vivo antitumor assay, mammary ductal adenocarcinoma No. 16/C (SC)
Parameters: species or system mice
Details: mouse, in vivo; Mam16/C (SC); drug SC; QD1-4; read-out: Maximum Tolerated Total Dose
READOUT_KIND: MTD (mg/kg)
State just the number; it will be interpreted in mg/kg.

Recall and state the measured MTD for "Cc1cc(-c2c(F)cc3c(=O)c(C(=O)O)cn4c3c2SC[C@@H]4C)cc(C)n1" . 263
